# SYSTEM TESTED: PI3K delta (Homo sapiens)
# Sequence (O00329 whole entry): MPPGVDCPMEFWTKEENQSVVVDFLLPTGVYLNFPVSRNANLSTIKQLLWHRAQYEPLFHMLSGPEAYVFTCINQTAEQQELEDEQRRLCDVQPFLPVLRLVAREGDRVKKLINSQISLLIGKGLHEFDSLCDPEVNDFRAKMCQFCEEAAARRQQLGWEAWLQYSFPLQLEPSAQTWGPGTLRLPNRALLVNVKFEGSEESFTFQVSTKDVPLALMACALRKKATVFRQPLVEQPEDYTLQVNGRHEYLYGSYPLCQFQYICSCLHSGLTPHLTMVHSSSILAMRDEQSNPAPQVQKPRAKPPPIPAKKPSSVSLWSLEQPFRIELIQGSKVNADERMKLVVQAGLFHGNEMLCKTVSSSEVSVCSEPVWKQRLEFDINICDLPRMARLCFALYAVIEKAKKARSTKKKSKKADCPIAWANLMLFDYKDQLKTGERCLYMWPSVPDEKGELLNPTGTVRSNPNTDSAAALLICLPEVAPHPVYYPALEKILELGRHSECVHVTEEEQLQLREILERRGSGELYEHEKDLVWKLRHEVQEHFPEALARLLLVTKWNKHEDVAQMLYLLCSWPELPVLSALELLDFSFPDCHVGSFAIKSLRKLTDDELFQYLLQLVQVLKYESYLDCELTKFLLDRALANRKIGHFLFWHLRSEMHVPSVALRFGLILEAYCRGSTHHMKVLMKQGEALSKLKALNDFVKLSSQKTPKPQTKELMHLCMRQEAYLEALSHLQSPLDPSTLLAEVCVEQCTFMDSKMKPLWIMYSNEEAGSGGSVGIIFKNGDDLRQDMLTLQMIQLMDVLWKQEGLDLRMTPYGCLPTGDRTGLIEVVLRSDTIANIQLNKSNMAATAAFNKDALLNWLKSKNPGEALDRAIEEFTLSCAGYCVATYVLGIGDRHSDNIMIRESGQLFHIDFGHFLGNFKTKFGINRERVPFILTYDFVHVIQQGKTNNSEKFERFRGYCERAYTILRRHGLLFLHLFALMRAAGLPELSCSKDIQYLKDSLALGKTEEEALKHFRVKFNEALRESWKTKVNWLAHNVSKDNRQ
# Sequence (P27986 whole entry partner): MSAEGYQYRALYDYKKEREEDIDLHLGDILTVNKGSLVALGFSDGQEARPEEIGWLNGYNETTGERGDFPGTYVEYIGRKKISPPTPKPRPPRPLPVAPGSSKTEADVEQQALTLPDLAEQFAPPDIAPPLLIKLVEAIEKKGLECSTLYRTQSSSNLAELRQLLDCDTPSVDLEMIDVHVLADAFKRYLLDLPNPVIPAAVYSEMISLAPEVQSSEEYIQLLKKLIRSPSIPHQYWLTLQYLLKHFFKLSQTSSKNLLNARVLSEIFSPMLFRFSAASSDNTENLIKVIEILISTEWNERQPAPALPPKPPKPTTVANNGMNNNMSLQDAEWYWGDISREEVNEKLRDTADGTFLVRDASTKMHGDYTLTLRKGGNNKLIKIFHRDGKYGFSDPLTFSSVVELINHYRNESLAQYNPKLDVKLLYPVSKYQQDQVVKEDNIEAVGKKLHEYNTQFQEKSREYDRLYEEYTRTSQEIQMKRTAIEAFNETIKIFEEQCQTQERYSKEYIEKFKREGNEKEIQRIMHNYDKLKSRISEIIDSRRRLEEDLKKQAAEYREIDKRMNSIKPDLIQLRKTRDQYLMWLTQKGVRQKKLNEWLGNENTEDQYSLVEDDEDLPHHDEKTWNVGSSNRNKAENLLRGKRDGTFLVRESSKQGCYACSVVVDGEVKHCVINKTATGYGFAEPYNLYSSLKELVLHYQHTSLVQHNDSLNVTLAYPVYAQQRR
# ASSAY NOTES: Luciferase-coupled chemiluminescence kinase assay (ATP consumption, KinaseGlo)
pIC50: −log10 of the molar value.
VALUE KIND: pIC50

These solved cases illustrate the format of a correct answer.
>>> df
                                   compound   test_result
0  Cn1c(C(=O)NCC2CC2)nc2c(N3CCC(O)(c4ccccc4)CC3)ncnc21 [Compound 3]  6.60 to 7.30
1  Cn1c(C(=O)NCC2CC2)nc2c(N3CCC4(CC3)C(=O)Nc3ccccc34)ncnc21 [Compound 6]  6.60 to 7.30
2  Cn1c(-c2ccc(C(F)(F)F)nc2)nc2c(N3CCC(n4c(=O)[nH]c5ccccc54)CC3)ncnc21 [Compound 279]        > 7.30
3  CC(C)CNC(=O)c1nc2c(N3CCC(n4c(=O)[nH]c5ccccc54)CC3)ncnc2n1C1CC1 [Compound 173]  6.30 to 6.60
4  Cc1ccoc1-c1nc2c(N3CCC(n4c(=O)[nH]c5ccccc54)CC3)ncnc2n1C [Compound 128]  6.30 to 6.60
5  CCn1c(-c2cnc(N)nc2)nc2c(N3CCC(n4c(=O)[nH]c5ccccc54)CC3)ncnc21 [Compound 304]        > 7.30
6  CCn1c(C(=O)NC2CCC2)nc2c(N3CCC4(CC3)C(=O)Nc3ccccc34)ncnc21 [Compound 221]        > 7.30
7  Cn1c(C(=O)N[C@H]2CC[C@H](O)CC2)nc2c(N3CCC(n4c(=O)[nH]c5ncccc54)CC3)ncnc21 [Compound 329]        > 7.30
8  Cn1c(CNC(=O)OC(C)(C)C)nc2c(N3CCC(n4c(=O)[nH]c5ccccc54)CC3)ncnc21 [Compound 339]  5.82 to 6.30
9  Cn1c(C(=O)NCCCCO)nc2c(N3CCC4(CC3)C(=O)Nc3ccccc34)ncnc21 [Compound 13]  6.60 to 7.30

Task: Suppose we examine the compound C=C(C)c1cn(-c2nc3c(N4CCC(n5c(=O)[nH]c6ccccc65)CC4)ncnc3n2C)cn1 [Compound 167] ; what pIC50 value has been reported?
Output: > 7.30

Task: // lookup pIC50 for Cn1cc(-c2nc3c(N4CCN(C5=NS(=O)(=O)c6ccccc65)CC4)ncnc3n2C)cn1 [Compound 348]
Output: 6.60 to 7.30

Task: I would be grateful if you could share the reported pIC50 for CC(C)CNC(=O)c1nc2c(N3CCC(n4c(=O)[nH]c5ccccc54)CC3)ncnc2n1C [Compound 67] .
Output: > 7.30

Task: Which pIC50 value belongs to CCNC(=O)c1nc2c(N3CCC4(CC3)C(=O)Nc3ccccc34)ncnc2n1CC [Compound 219] ?
Output: > 7.30

Sourced from patent US20140058103A1
